target: Carbonic anhydrase (Candida albicans (strain SC5314 / ATCC MYA-2876) (Yeast))
Sequence (Q5AJ71 whole entry): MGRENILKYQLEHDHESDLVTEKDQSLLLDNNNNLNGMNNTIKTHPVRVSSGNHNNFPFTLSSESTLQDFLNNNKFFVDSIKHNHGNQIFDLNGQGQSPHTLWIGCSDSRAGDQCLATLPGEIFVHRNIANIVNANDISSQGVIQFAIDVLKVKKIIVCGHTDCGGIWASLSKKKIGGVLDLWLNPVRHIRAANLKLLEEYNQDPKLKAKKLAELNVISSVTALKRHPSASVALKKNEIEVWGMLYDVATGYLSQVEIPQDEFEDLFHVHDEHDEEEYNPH
Entries whose Ki is below 1000 nM take MET; entries at or above 1000 nM take NOT MET.

Consider the worked cases shown below.
{"compound": "OCCc1ccc(O)cc1", "target.or.test.system": "Carbonic anhydrase (Candida albicans (strain SC5314 / ATCC MYA-2876) (Yeast))", "label": "NOT MET"}
{"compound": "COc1cccc(CCNC(=O)Cc2ccc(O)c(Cl)c2)c1", "target.or.test.system": "Carbonic anhydrase (Candida albicans (strain SC5314 / ATCC MYA-2876) (Yeast))", "label": "MET"}
{"compound": "NC1=N/C(=C\\c2ccc(O)c(O)c2)C(=O)N1", "target.or.test.system": "Carbonic anhydrase (Candida albicans (strain SC5314 / ATCC MYA-2876) (Yeast))", "label": "MET"}
{"compound": "Oc1ccccc1", "target.or.test.system": "Carbonic anhydrase (Candida albicans (strain SC5314 / ATCC MYA-2876) (Yeast))", "label": "NOT MET"}
{"compound": "COc1cc(/C=C2\\N=C(N)NC2=O)ccc1O", "target.or.test.system": "Carbonic anhydrase (Candida albicans (strain SC5314 / ATCC MYA-2876) (Yeast))", "label": "MET"}
{"compound": "O=C(O)Cc1ccc(O)c(Cl)c1", "target.or.test.system": "Carbonic anhydrase (Candida albicans (strain SC5314 / ATCC MYA-2876) (Yeast))", "label": "NOT MET"}

Does the reported Ki of the following compound sit strictly below 1000 nM? CCCCNC(=O)Cc1ccc(O)c(Cl)c1
MET

Ki strictly < 1000 nM for this compound? NS(=O)(=O)c1ccc(CCNC(=O)Cc2ccc(O)c(Cl)c2)cc1
MET

Please let me know if O=C(Cc1ccc(O)c(Cl)c1)NCCc1ccccc1 shows Ki below 1000 nM.
MET

Ki under 1000 nM? Item: NC(=O)Cc1ccc(O)cc1
MET

Lab log: compare recorded Ki with 1000 nM; is it strictly lower for COc1cc(C)cc2oc3ccc(O)c(C(=O)O)c3c(=O)c12 ?
NOT MET

I'd appreciate it if you could check whether O=C(Cc1ccc(O)c(Cl)c1)NCc1ccccc1 has Ki smaller than 1000 nM.
MET

For this compound, is Ki lower than 1000 nM? COc1ccc(CCNC(=O)Cc2ccc(O)c(Cl)c2)cc1OC
MET

Would you kindly verify if Ki of CC(C)(C)NC(=O)Cc1ccc(O)c(Cl)c1 is strictly less than 1000 nM?
MET

Please state whether Ki is below 1000 nM for COc1cc(C[C@@H](C)[C@H](C)Cc2ccc(O)c(OC)c2)ccc1O [(-)-DIHYDROGUAIARETICACID]
MET

###

molecular target: Carbonic anhydrase 1 (Homo sapiens)
Sequence (P00915 whole entry): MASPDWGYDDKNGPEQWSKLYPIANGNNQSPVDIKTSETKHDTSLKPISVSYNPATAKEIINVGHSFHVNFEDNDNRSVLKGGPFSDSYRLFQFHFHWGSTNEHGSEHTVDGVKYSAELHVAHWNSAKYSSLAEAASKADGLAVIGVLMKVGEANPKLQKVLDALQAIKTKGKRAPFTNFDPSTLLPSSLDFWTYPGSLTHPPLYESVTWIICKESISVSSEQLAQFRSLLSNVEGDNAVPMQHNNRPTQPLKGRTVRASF
pKi: −log10 of the molar value.
So basically: pKi at 4 or higher? That is T. Lower than 4? That is F.

{"compound": "COc1cc([C@@H]2[C@@H](C)[C@@H](C)[C@@H]2c2ccc(O)c(OC)c2)ccc1O", "target.or.test.system": "Carbonic anhydrase 1 (Homo sapiens)", "label": "F"}
{"compound": "COc1cc([C@@H]2[C@@H](C)[C@H](C)[C@H]2c2ccc(O)c(OC)c2)ccc1O", "target.or.test.system": "Carbonic anhydrase 1 (Homo sapiens)", "label": "F"}
{"compound": "COc1cc(/C=C2\\N=C(N)NC2=O)ccc1O", "target.or.test.system": "Carbonic anhydrase 1 (Homo sapiens)", "label": "T"}
{"compound": "COCCNC(=O)Cc1ccc(O)c(Cl)c1", "target.or.test.system": "Carbonic anhydrase 1 (Homo sapiens)", "label": "F"}
{"compound": "CCCCNC(=O)Cc1ccc(O)c(Cl)c1", "target.or.test.system": "Carbonic anhydrase 1 (Homo sapiens)", "label": "T"}

Does OCCc1ccc(O)cc1 have a reported pKi of at least 4?
F

Given O=C(Cc1ccc(O)c(Cl)c1)NCCc1ccccc1 , state whether its pKi is at least 4.
T

Check this compound for pKi at or above 4: O=C(Cc1ccc(O)c(Cl)c1)NCc1ccccc1
T

Assess whether reported pKi for O=C(O)Cc1ccc(O)cc1 sits at 4 or higher.
F

Decide: is the reported value of pKi for COc1cc(C[C@@H](C)[C@H](C)Cc2ccc(O)c(OC)c2)ccc1O [(-)-DIHYDROGUAIARETICACID] equal to or greater than 4?
F

###

// pKi collected for Carbonic anhydrase 2 (Cryptococcus neoformans, UniProt Q3I4V7)
# pKi is unitless: minus log10 of the molar concentration; print number only

See these solved cases before continuing.
{"compound": "COC(=O)/C=C/C(=O)N[C@@H](Cc1ccc(O)c(Cl)c1)C(=O)O [(+)-XYLARIAMIDE A]", "meas.value": 5.95}
{"compound": "COc1cc(C)cc2oc3ccc(O)c(C(=O)O)c3c(=O)c12", "meas.value": 5.95}
{"compound": "OCCc1ccc(O)cc1", "meas.value": 5.97}
{"compound": "CCCCNC(=O)Cc1ccc(O)c(Cl)c1", "meas.value": 6.14}
{"compound": "COc1ccc(CCNC(=O)Cc2ccc(O)c(Cl)c2)cc1OC", "meas.value": 6.07}
{"compound": "NC1=N/C(=C\\c2ccc(O)c(O)c2)C(=O)N1", "meas.value": 6.02}
{"compound": "COc1cc(/C=C2\\N=C(N)NC2=O)ccc1O", "meas.value": 6.05}
{"compound": "Oc1ccccc1", "meas.value": 4.59}
{"compound": "COc1cc([C@@H]2[C@@H](C)[C@@H](C)[C@@H]2c2ccc(O)c(OC)c2)ccc1O", "meas.value": 6.02}
{"compound": "COCCNC(=O)Cc1ccc(O)c(Cl)c1", "meas.value": 6.02}

Can you look up pKi on Carbonic anhydrase 2 (Cryptococcus neoformans, UniProt Q3I4V7) for CC(C)(C)NC(=O)Cc1ccc(O)c(Cl)c1 ?
6.04

###

target: PROBABLE TRANSMEMBRANE CARBONIC ANHYDRASE (CARBONATE DEHYDRATASE) (CARBONIC DEHYDRATASE) (Mycobacterium tuberculosis, UniProt P96878)
Sequence (P96878 whole entry): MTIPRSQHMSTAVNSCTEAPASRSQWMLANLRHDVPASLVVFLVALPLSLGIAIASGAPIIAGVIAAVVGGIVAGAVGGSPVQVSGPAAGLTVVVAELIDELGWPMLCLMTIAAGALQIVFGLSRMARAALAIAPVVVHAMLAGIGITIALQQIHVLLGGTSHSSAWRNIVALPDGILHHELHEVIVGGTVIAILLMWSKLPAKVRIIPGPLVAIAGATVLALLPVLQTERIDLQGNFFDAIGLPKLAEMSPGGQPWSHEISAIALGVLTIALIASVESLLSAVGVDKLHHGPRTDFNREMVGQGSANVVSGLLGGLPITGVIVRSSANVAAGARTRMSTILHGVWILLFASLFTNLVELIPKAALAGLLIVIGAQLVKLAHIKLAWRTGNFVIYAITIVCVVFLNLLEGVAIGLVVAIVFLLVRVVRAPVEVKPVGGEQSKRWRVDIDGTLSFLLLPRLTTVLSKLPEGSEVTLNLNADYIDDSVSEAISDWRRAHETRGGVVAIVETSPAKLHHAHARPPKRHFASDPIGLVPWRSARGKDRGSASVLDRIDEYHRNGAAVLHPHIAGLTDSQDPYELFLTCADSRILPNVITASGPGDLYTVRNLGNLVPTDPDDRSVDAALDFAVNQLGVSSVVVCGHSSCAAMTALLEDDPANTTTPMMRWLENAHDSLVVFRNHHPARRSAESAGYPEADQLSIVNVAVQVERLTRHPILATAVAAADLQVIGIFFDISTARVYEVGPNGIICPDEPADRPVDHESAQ
readout.type: log10(Ki) (log10 of the value in nM)
Heads up, the numbers here are log10 of Ki in nM units.

{"compound": "COc1cc(/C=C2\\N=C(N)NC2=O)ccc1O", "log10(Ki)": 2.96}
{"compound": "COc1cccc(CCNC(=O)Cc2ccc(O)c(Cl)c2)c1", "log10(Ki)": 2.96}
{"compound": "CC1(C)O[C@@H]2[C@@H](CO[C@@]3(COS(N)(=O)=O)OC(C)(C)O[C@@H]23)O1 [TOPIRAMATE]", "log10(Ki)": 3.48}

If you can, please state the reported log10(Ki) value of OCCc1ccc(O)cc1 .
4.08

So what does the record say about log10(Ki) for NS(=O)(=O)c1ccc(CCNC(=O)Cc2ccc(O)c(Cl)c2)cc1 ?
2.93

What does the data say about its log10(Ki)? Entry: COc1ccc(CCNC(=O)Cc2ccc(O)c(Cl)c2)cc1OC
2.95

Name the recorded log10(Ki) for COc1cc(C[C@@H](C)[C@H](C)Cc2ccc(O)c(OC)c2)ccc1O [(-)-DIHYDROGUAIARETICACID] .
3.96

# query: log10(Ki) of entry O=C(O)Cc1ccc(O)c(Cl)c1
4.03

###

# collection of pKi values tested on Carbonic anhydrase 2 (Homo sapiens)
// field semantics: pKi = negative decimal log of concentration (mol/L)

Recorded pKi, per entry:
{"molecule": "COc1cc(C[C@@H](C)[C@H](C)Cc2ccc(O)c(OC)c2)ccc1O [(-)-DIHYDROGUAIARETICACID]", "readout.type": "pKi", "meas.value": 3.64}
{"molecule": "O=C(Cc1ccc(O)c(Cl)c1)NCc1ccccc1", "readout.type": "pKi", "meas.value": 4.94}
{"molecule": "O=C(O)Cc1ccc(O)cc1", "readout.type": "pKi", "meas.value": 4.99}
{"molecule": "COc1cc([C@@H]2[C@@H](C)[C@@H](C)[C@@H]2c2ccc(O)c(OC)c2)ccc1O [ENDIANDRIN B]", "readout.type": "pKi", "meas.value": 4.92}

What measured pKi is associated with COCCNC(=O)Cc1ccc(O)c(Cl)c1 on Carbonic anhydrase 2 (Homo sapiens)?
4.98

# get_value(readout= pKi, system= Carbonic anhydrase 2 (Homo sapiens)) for CCCCNC(=O)Cc1ccc(O)c(Cl)c1
5.03

// fetch Carbonic anhydrase 2 (Homo sapiens) pKi for OCCc1ccc(O)cc1 [TYROSOL]
5.06

Requested read-out pKi, target or system Carbonic anhydrase 2 (Homo sapiens), entry COc1cc([C@@H]2[C@@H](C)[C@H](C)[C@H]2c2ccc(O)c(OC)c2)ccc1O [ENDIANDRIN A]
4.93

GET /values?readout=pKi&system=Carbonic anhydrase 2 (Homo sapiens)&item= O=C(Cc1ccc(O)c(Cl)c1)NCCc1ccccc1
5.01

Recorded pKi for COc1cc(/C=C2\N=C(N)NC2=O)ccc1O [POLYANDROCARPAMINE A] with Carbonic anhydrase 2 (Homo sapiens), please?
5.02
